Target: Δ49N-hChoKα (Homo sapiens, UniProt P35790)
Construct: cDNA fragment 362-1534, corresponding to aminoacids 50 457; GST (N, cleaved yes); PreScission Protease recognition site (N); made in house; host or cells: Escherichia coli BL21pLysS (DE3)
Sequence (P35790 50-439 isoform P35790-2): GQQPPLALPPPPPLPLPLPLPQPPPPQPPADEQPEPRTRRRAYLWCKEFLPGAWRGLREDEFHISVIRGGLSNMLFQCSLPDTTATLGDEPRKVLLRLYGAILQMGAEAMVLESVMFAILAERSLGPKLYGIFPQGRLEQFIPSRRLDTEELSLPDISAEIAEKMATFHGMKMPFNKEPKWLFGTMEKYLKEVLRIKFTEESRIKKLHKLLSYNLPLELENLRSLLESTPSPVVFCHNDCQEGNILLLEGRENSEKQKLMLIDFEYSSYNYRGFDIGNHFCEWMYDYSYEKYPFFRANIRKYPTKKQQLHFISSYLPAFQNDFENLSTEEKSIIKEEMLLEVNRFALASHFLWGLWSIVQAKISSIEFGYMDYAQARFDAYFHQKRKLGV
Assay: Biochemical kinase inhibition assay (Kinase-Glo luminescent) on Δ49N-hChoKα
Conditions: recombinant Δ49N-hChoKα 2.2 nM, ATP 5 μM, choline 5 μM, 60 min rt; read-out: ChoKα IC50
Experimental: […] The biochemical activity of compounds against Δ49N-ChoKα and ChoK3 FL were determined using the Kinase-Glo™ Luminescent Kinase Assay (Promega cat. V6711). The assay is based on incubation of the recombinant Δ49N-hChoKα and hChoKβ FL produced in house, 2.2 nM and 30 nM, respectively, with the specific substrates, choline (Sigma-Aldrich-C7017) and ATP, followed by quantification, at the end of reaction time, of the residual not reacted ATP. […]
Observable: IC50 (nM)
Numbers only, in nM.

CC1(C)Cc2cnc(N)nc2-c2[nH]nc(C(=O)Nc3nc(COC4CCN(C5CCC6(CC5)CC6)CC4)cs3)c21    24

// for each compound below, give its IC50
1. CC1(C)Cc2cnc(N)nc2-c2[nH]nc(C(=O)Nc3ccc(CNc4ccc(CN5CCC(N6CCCCC6)CC5)cc4)cc3)c21
2. CC1(C)Cc2cnc(N)nc2-c2[nH]nc(C(=O)Nc3ccc4c(c3)OCO4)c21
3. COc1ccc(NC(=O)c2n[nH]c3c2C(C)(C)Cc2cnc(N)nc2-3)cc1
4. CC1(C)Cc2cnc(N)nc2-c2[nH]nc(C(=O)Nc3nc(COC4CCN(CC5CCCCC5)CC4)cs3)c21
5. CC1(C)Cc2cnc(N)nc2-c2[nH]nc(C(=O)Nc3nc(CC(=O)N4CCN(C5CCCCC5)CC4)cs3)c21
6. CC1(C)Cc2cnc(N)nc2-c2[nH]nc(C(=O)Nc3nc(CC(=O)N4CCC(CO)CC4)cs3)c21
7. CN(C)[C@H]1CCN(C(=O)Cc2csc(NC(=O)c3n[nH]c4c3C(C)(C)Cc3cnc(N)nc3-4)n2)C1
8. Cn1nc(C(=O)Nc2nc(CN3CCC(N4CCCCC4)CC3)cs2)c2c1-c1nc(N)ncc1CC2(C)C

1: 3; 2: 244; 3: 247; 4: 8; 5: 6; 6: 98; 7: 12; 8: 622

Quick batch: IC50 for everything below.
1. CC1(C)Cc2cnc(N)nc2-c2[nH]nc(C(=O)Nc3ccc(O)cc3)c21
2. COC(=O)C1(c2csc(NC(=O)c3n[nH]c4c3C(C)(C)Cc3cnc(N)nc3-4)n2)CC1
3. CC(C)=CC(=O)CC(C)(C)NC(=O)Cc1csc(NC(=O)c2n[nH]c3c2C(C)(C)Cc2cnc(N)nc2-3)n1
4. Cc1nc(NC(=O)c2n[nH]c3c2C(C)(C)Cc2cnc(N)nc2-3)sc1C(=O)NC1CCN(C)CC1
5. CC1(C)Cc2cnc(N)nc2-c2[nH]nc(C(=O)Nc3nc(CC(N)=O)cs3)c21

[229, 617, 30, 69, 73]

Item under review: CN(C(=O)c1nn(C)c2c1C(C)(C)Cc1cnc(N)nc1-2)c1nc(CC(=O)N2CCC(N3CCCCC3)CC2)cs1 . Reported IC50? 187

* * *

Target: hChoKβ FL (Homo sapiens)
Construct: hChoKβ full length (FL), corresponding to aminoacids 2-395; GST (N, cleaved yes); PreScission Protease recognition site (N); made in house; host or cells: Escherichia coli BL21pLysS (DE3)
Test: Biochemical kinase inhibition assay (Kinase-Glo luminescent) on hChoKβ FL
Conditions: ChoKβ IC50, recombinant hChoKβ FL 30 nM, ATP 5 μM, choline 20 μM, 60 min rt
pIC50: −log10 of the molar value.
Observable: pIC50

API: value(readout=pIC50, system=hChoKβ FL (Homo sapiens)) for record CC1(C)Cc2cnc(N)nc2-c2[nH]nc(C(=O)Nc3nc(CC(=O)N4CCC(=O)CC4)cs3)c21 < 5.00

* * *

Consider the following molecules; for each one, report its IC50.
Biological target: Δ49N-hChoKα (Homo sapiens)
Construct: cDNA fragment 362-1534, corresponding to aminoacids 50 457; GST (N, cleaved yes); PreScission Protease recognition site (N); made in house; host or cells: Escherichia coli BL21pLysS (DE3)
Assay: Biochemical kinase inhibition assay (Kinase-Glo luminescent) on Δ49N-hChoKα
Settings: recombinant Δ49N-hChoKα 2.2 nM, ATP 5 μM, choline 5 μM, 60 min rt; read-out: ChoKα IC50
One number for each entry, in µM.

CC1(C)CCC(N2CCC(OCc3csc(NC(=O)c4n[nH]c5c4C(C)(C)Cc4cnc(N)nc4-5)n3)CC2)CC1 [compound 221]    0.01

Give IC50 for each of the items listed below.
1. CC1CCN(C2CCN(C(=O)c3ccc4nc(NC(=O)c5n[nH]c6c5C(C)(C)Cc5cnc(N)nc5-6)sc4c3)CC2)CC1
2. CC1(C)Cc2cnc(N)nc2-c2[nH]nc(C(=O)Nc3cccc(C(=O)N4CCC(N5CCCC5)CC4)c3)c21
3. CC1(C)Cc2cnc(N)nc2-c2[nH]nc(C(=O)Nc3ccc(C(=O)N[C@H]4CC[C@H](O)CC4)cc3)c21

[0.009, 0.266, 0.511]

* * *

Molecular target: Δ49N-hChoKα (Homo sapiens, UniProt P35790)
Construct: cDNA fragment 362-1534, corresponding to aminoacids 50 457; GST (N, cleaved yes); PreScission Protease recognition site (N); made in house; host or cells: Escherichia coli BL21pLysS (DE3)
Test: Biochemical kinase inhibition assay (Kinase-Glo luminescent) on Δ49N-hChoKα
Settings: recombinant Δ49N-hChoKα 2.2 nM, ATP 5 μM, choline 5 μM, 60 min rt; read-out: ChoKα IC50
Observable: pIC50
Numbers only, as −log10 of the molar value.

Study these solved cases before continuing.
CC(C)(C)OC(=O)NC1CCN(C(=O)Cc2csc(NC(=O)c3n[nH]c4c3C(C)(C)Cc3cnc(N)nc3-4)n2)CC1 [compound 43]    8.15
CN1CCN(c2ccc(NC(=O)c3n[nH]c4c3C(C)(C)Cc3cnc(N)nc3-4)cc2)CC1 [compound 6]    6.13
COc1cccc(NC(=O)c2n[nH]c3c2C(C)(C)Cc2cnc(N)nc2-3)c1 [compound 1]    6.59
CC1(C)Cc2cnc(N)nc2-c2[nH]nc(C(=O)Nc3nc(CNC4CCN(C5CCCCC5)CC4)cs3)c21 [compound 156]    8.52
CC1(C)Cc2cnc(N)nc2-c2[nH]nc(C(=O)Nc3ccc(C(=O)NC4CCCC4)cc3)c21 [compound 29]    6.88
CCOC(=O)c1cccc(NC(=O)c2n[nH]c3c2C(C)(C)Cc2cnc(N)nc2-3)c1 [compound 17]    6.10

// next entry
Form entry - test system: Δ49N-hChoKα (Homo sapiens, UniProt P35790); read-out: pIC50; molecule: CC1(C)Cc2cnc(N)nc2-c2[nH]nc(C(=O)Nc3nc(C(=O)N4CCC(N5CCCCC5)CC4)cs3)c21 [compound 70] 7.46

* * *

Molecular target: hChoKβ FL (Homo sapiens, UniProt Q9Y259)
Construct: hChoKβ full length (FL), corresponding to aminoacids 2-395; GST (N, cleaved yes); PreScission Protease recognition site (N); made in house; host or cells: Escherichia coli BL21pLysS (DE3)
Sequence (Q9Y259 2-395): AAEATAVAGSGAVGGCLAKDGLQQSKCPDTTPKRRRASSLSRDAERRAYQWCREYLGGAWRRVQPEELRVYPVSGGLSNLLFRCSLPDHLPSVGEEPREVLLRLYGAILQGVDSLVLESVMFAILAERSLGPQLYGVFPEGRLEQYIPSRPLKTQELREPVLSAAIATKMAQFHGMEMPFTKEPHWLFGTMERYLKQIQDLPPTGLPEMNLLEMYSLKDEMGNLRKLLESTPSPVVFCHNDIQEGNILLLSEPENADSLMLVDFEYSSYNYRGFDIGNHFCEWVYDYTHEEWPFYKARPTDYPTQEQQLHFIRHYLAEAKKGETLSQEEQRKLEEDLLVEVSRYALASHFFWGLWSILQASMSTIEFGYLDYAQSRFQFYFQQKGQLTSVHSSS
Test: Biochemical kinase inhibition assay (Kinase-Glo luminescent) on hChoKβ FL
Conditions: recombinant hChoKβ FL 30 nM, ATP 5 μM, choline 20 μM, 60 min rt; read-out: ChoKβ IC50
Provide the reported IC50 of each item.
One number for each entry, in nM.

Previously resolved entries follow.
CC(C)(C)OC(=O)NC1CCN(C(=O)Cc2csc(NC(=O)c3n[nH]c4c3C(C)(C)Cc3cnc(N)nc3-4)n2)CC1 [compound 43]    1030
CN(C)CCCNC(=O)Cc1csc(NC(=O)c2n[nH]c3c2C(C)(C)Cc2cnc(N)nc2-3)n1 [compound 95]    126
CC1(C)CCCN(C2CCN(C(=O)Cc3csc(NC(=O)c4n[nH]c5c4C(C)(C)Cc4cnc(N)nc4-5)n3)CC2)C1 [compound 219]    296

Please supply IC50 for each of the following items, keeping them in order.
1. CC1(C)Cc2cnc(N)nc2-c2[nH]nc(C(=O)Nc3ncc[nH]3)c21 [compound 144]
2. CC1(C)Cc2cnc(N)nc2-c2[nH]nc(C(=O)Nc3cccc(CC(=O)N4CCC(N5CCCCC5)CC4)c3)c21 [compound 120]
3. CN(C)C1CCN(C(=O)Cc2csc(NC(=O)c3n[nH]c4c3C(C)(C)Cc3cnc(N)nc3-4)n2)CC1 [compound 89]
4. CC(C)(C)OC(=O)NC1CCN(Cc2ccc(NC(=O)c3n[nH]c4c3C(C)(C)Cc3cnc(N)nc3-4)cc2)CC1 [compound 133]
5. CC1CCN(C2CCN(C(=O)Cc3csc(NC(=O)c4nn(C)c5c4CC(C)(C)c4cnc(N)nc4-5)n3)CC2)CC1 [compound 225]
6. CC1(C)Cc2cnc(N)nc2-c2[nH]nc(C(=O)Nc3cccc(CC(=O)N4CCC(N)CC4)c3)c21 [compound 149]
7. CCOC(=O)Cc1ccc(NC(=O)c2n[nH]c3c2C(C)(C)Cc2cnc(N)nc2-3)cc1 [compound 96]

1. 688
2. 913
3. 400
4. 1440
5. 2260
6. 3210
7. 934

Parameter requested: IC50. Apply to each item below.
1. CC1(C)Cc2cnc(N)nc2-c2[nH]nc(C(=O)Nc3ccc(C(=O)NC4CC4)cc3)c21 [compound 31]
2. CC1(C)Cc2cnc(N)nc2-c2[nH]nc(C(=O)Nc3ccc4c(c3)OCO4)c21 [compound 4]
3. CC(C)(C)OC(=O)NC1CCN(C(=O)c2ccc(NC(=O)c3n[nH]c4c3C(C)(C)Cc3cnc(N)nc3-4)cc2)CC1 [compound 46]
4. CC1(C)Cc2cnc(N)nc2-c2[nH]nc(C(=O)Nc3ccc(CNc4ccc(CN5CCC(N6CCCCC6)CC5)cc4)cc3)c21 [compound 126]
5. CN(C)C1CCN(C(=O)Cc2cccc(NC(=O)c3n[nH]c4c3C(C)(C)Cc3cnc(N)nc3-4)c2)CC1 [compound 146]
6. CC1(C)Cc2cnc(N)nc2-c2[nH]nc(C(=O)Nc3nc(CNC4CCN(C5CCCCC5)CC4)cs3)c21 [compound 156]
7. CN1CCC(NC(=O)c2ccc(NC(=O)c3n[nH]c4c3C(C)(C)Cc3cnc(N)nc3-4)cc2)CC1 [compound 8]
8. CC1CCN(C2CCN(C(=O)Cc3csc(NC(=O)c4n[nH]c5c4CC(C)(C)c4cnc(N)nc4-5)n3)CC2)CC1 [compound 231]

431
1120
1620
592
551
249
565
104
